A collection of molecules and their measured Kd
Biological target: FLT3 kinase (Homo sapiens, UniProt P36888)
Sequence (P36888 27-993): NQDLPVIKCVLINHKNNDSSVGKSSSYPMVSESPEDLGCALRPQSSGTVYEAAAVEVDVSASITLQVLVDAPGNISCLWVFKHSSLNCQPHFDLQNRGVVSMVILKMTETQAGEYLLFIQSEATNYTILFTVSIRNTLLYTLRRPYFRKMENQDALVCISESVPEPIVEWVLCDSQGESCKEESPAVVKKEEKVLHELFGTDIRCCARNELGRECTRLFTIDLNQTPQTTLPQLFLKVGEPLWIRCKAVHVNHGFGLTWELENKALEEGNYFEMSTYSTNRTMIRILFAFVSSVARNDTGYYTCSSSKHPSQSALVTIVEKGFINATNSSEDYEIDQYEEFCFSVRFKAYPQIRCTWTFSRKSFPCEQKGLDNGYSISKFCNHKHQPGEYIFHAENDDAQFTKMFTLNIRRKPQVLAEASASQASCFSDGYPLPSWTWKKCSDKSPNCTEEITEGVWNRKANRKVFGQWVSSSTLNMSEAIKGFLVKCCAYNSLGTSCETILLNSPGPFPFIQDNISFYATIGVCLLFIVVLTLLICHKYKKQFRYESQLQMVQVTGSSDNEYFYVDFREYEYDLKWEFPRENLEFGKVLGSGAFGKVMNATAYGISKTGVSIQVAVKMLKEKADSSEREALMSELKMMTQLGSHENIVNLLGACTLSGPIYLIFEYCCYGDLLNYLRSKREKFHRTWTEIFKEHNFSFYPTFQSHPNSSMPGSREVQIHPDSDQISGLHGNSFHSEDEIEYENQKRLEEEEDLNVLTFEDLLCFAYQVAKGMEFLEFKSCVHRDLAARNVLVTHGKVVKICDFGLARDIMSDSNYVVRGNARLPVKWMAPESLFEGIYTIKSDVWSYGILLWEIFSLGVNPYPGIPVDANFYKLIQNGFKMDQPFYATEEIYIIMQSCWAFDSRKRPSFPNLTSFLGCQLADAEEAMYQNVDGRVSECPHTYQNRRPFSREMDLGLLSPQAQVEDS

-- ask Which Kd is reported with FLT3 kinase (Homo sapiens, UniProt P36888) for this entry: CC(C)(c1cc(NC(=O)Cc2ccc(-c3ccc(NCCN4CCOCC4)nc3)cc2)no1)C(F)(F)F.CS(=O)(=O)O [Example 109, methanesulfonate] ?
-- reply ≤ 1 nM

-- ask Which Kd is reported with FLT3 kinase (Homo sapiens, UniProt P36888) for this entry: CC(C)(C)c1cc(NC(=O)Cc2ccc(-c3ccc(N)nc3F)cc2)no1.CS(=O)(=O)O [Example 95, methanesulfonate] ?
-- reply ≤ 1 nM

-- ask Which Kd is reported with FLT3 kinase (Homo sapiens, UniProt P36888) for this entry: CS(=O)(=O)O.Nc1ccc(-c2ccc(NC(=O)Nc3cc(C4(C(F)(F)F)CCC4)on3)cc2)cn1 [Example 121, methanesulfonate] ?
-- reply 1 to 10 nM

-- ask Which Kd is reported with FLT3 kinase (Homo sapiens, UniProt P36888) for this entry: CC(C)(C)c1cc(NC(=O)Cc2ccc(-c3cc(F)c(N)nc3F)cc2)no1.CS(=O)(=O)O [Example 152, methanesulfonate] ?
-- reply ≤ 1 nM

-- ask Which Kd is reported with FLT3 kinase (Homo sapiens, UniProt P36888) for this entry: CC(C)(C)c1cc(NC(=O)Cc2ccc(-c3cnc(N)c(C(F)(F)F)c3)cc2)no1.CS(=O)(=O)O [Example 116, methanesulfonate] ?
-- reply ≤ 1 nM

-- ask Which Kd is reported with FLT3 kinase (Homo sapiens, UniProt P36888) for this entry: CC(C)(C)c1cc(NC(=O)Cc2ccc(-c3cnc(N)c(C(N)=O)n3)cc2)no1 [Example 114, methanesulfonate] ?
-- reply ≤ 1 nM
